Target: Histidine--tRNA ligase (Leishmania infantum) (UniProt A4I591)
Sequence (A4I591 as listed by the source): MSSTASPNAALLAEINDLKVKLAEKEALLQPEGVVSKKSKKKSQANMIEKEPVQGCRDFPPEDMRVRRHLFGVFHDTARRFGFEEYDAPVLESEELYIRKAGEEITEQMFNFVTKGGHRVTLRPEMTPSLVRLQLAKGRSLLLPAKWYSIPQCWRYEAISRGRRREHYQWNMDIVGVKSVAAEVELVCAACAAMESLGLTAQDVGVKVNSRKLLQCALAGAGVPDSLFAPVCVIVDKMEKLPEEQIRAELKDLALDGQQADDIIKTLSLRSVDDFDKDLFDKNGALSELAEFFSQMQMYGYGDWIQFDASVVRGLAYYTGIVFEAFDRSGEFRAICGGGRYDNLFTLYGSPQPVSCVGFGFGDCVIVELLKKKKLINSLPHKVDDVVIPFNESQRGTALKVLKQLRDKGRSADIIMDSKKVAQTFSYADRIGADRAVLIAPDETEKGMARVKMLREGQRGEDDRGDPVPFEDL
Assay: Leishmania infantum Histidine tRNA synthetase (LdHisRS)
Format: functional
Set-up: scale not given: in the data most compounds retested in dose-response had high values
Conditions: 30 µM
Among all 69,000 compounds or so, about 420 (0.61%) showed an effect of 50% or more. The full list was thinned out, with strong results kept by preference.
YES if Percent Effect is below 20%. NO if not; exact matches included in NO.

| compound | measured_target | qualitative_label |
| --- | --- | --- |
| NC(=O)c1cc(-n2cc(-c3cccc(C(=O)O)c3)cn2)cs1 | Histidine--tRNA ligase (Leishmania infantum) (UniProt A4I591) | YES |
| CCN1C[C@@H]2CN(C(=O)c3ccsc3)C[C@@H]2C1=O | Histidine--tRNA ligase (Leishmania infantum) (UniProt A4I591) | YES |
| c1ccc(Cc2noc(CN3CCc4cncnc4C3)n2)cc1 | Histidine--tRNA ligase (Leishmania infantum) (UniProt A4I591) | NO |
| c1ncc2c(n1)CN(Cc1nc(-c3ccoc3)no1)CC2 | Histidine--tRNA ligase (Leishmania infantum) (UniProt A4I591) | NO |
| O=C(Cc1ccncc1)N1C[C@@H]2CC[C@H](C1)N(Cc1ccccc1)C2=O | Histidine--tRNA ligase (Leishmania infantum) (UniProt A4I591) | YES |
| Cc1cccc(CN2C[C@@H]3CN(C(=O)c4ccnnc4)C[C@@H]3C2=O)c1 | Histidine--tRNA ligase (Leishmania infantum) (UniProt A4I591) | NO |
| O=C(O)C1c2nc[nH]c2CCN1Cc1ccccc1-c1ccccc1 (stereo unspecified) | Histidine--tRNA ligase (Leishmania infantum) (UniProt A4I591) | NO |
| Fc1ccc(OCc2noc(CN3CCc4cncnc4C3)n2)cc1 | Histidine--tRNA ligase (Leishmania infantum) (UniProt A4I591) | NO |
| CS(=O)(=O)N1C[C@@H]2CC[C@H](C1)N(Cc1ccsc1)C2 | Histidine--tRNA ligase (Leishmania infantum) (UniProt A4I591) | NO |
| Cc1cc(C(=O)NCC(F)(F)F)c2c(C3CCNCC3)noc2n1 | Histidine--tRNA ligase (Leishmania infantum) (UniProt A4I591) | YES |
| O=C(O)C1c2nc[nH]c2CCN1CC(c1ccccc1)c1ccccc1 (stereo unspecified) | Histidine--tRNA ligase (Leishmania infantum) (UniProt A4I591) | NO |
